Origin of the recorded values: ChEMBL document CHEMBL4813920

System: Leishmania mexicana
Assay: Antileishmanial activity against promastigote form of Leishmania mexicana MHOM/BZ/82/Bel21 measured for 7 days by cell counting method
Format: functional
Conditions: MHOM/BZ/82/Bel21, 168 h, time 7 day
Reported LC50 values are given for each entry in this list.
Give the value, in units of µM, as a plain number.

Prompt line: // fetch LC50 given entry "Cc1ncc([N+](=O)[O-])n1CCSCOC(=O)c1ccc(O)c(O)c1"
Response line: 11

Prompt line: For the molecule "Cc1ncc([N+](=O)[O-])n1CCSCO" , report LC50.
Response line: 2250

Please turn your attention to the following entry.
Prompt line: Hello, please tell me recorded LC50 for this one: "Cc1ncc([N+](=O)[O-])n1CCSCOC(=O)c1cc(O)c(O)c(O)c1"
Response line: 1

###

Test system: Giardia intestinalis
Assay: Antigiardial activity against Giardia intestinalis WB ATCC 30957 incubated for 72 hrs by trypan blue staining based assay
Assay type: functional, organism-based
Settings: Giardia duodenalis, WB ATCC 30957, 72 h
IC50 values by entry
// return numeric value only (unit: µM, not printed)

Prompt line: Note IC50 for the compound shown: "Cc1ncc([N+](=O)[O-])n1CCO"
Response line: 5.7

Prompt line: Check the records and state IC50 for "O=C(O)/C=C/c1ccc([N+](=O)[O-])o1"
Response line: 67.5

Next:
Prompt line: Return the recorded IC50 value; entry: "Clc1ccc2c(N3CCNCC3)ccnc2c1"
Response line: 88.4

###

Test: Selectivity index, ratio of CC50 for African green monkey Vero cells to IC50 for antigiardial activity against Trichomonas vaginalis GT3
Type: toxicity
Conditions: read-out: Ratio CC50/IC50
Attribute: selectivity ratio
Number only, please.

Prompt line: Determine from records and report selectivity ratio for "Cc1ncc([N+](=O)[O-])n1CCOC(=O)Nc1ccccc1"
Response line: 1110

***
Prompt line: Query selectivity ratio for "Cc1ncc([N+](=O)[O-])n1CCOC(=O)NC1CCCCC1"
Response line: 1670

###

System: MDA-MB-231
Assay: Antiproliferative activity against human MDA-MB-231 cells after 24 hrs by MTT assay
Format: functional, cell-based
Conditions: MDA-MB-231, 24 h
REPORTED_PROPERTY: IC50
Please state the number and follow it with the unit.

Worked cases, answers included:
Prompt line: Annotate the compound "CC1=CC(=O)c2c(O)cccc2C1=O" with its measured IC50.
Response line: 4.4 µM

Prompt line: # return recorded IC50 for input "Cc1ncc([N+](=O)[O-])n1Cc1cn(CCCCCN2C(=O)C(=O)c3cc(F)ccc32)nn1"
Response line: 56.2 µM

Next:
Prompt line: Entry "Cc1ncc([N+](=O)[O-])n1Cc1cn(CCCCN2C(=O)C(=O)c3cc(Cl)ccc32)nn1" needs its IC50 filled in; supply it.
Response line: 26.1 µM

###

Items are presented alongside their recorded IC50.
Test system: MCF7
Test: cells
Details: Homo sapiens, MCF7, 48 h
Just the number please, in nM, no unit attached.

Prompt line: Give the reported IC50 for this molecule. "COc1cc2c(c(OC)c1OC)-c1ccc(OC)c(=O)cc1[C@@H](NC(C)=O)CC2"
Response line: 38

// below: IC50 requested for another molecule
Prompt line: Give IC50 for "COc1cc(/C=C\c2ncc([N+](=O)[O-])n2CCOC(=O)c2c[nH]c3ccccc23)cc(OC)c1OC"
Response line: 30

###

Experiment: Cytotoxicity against human MT4 cells assessed as reduction in cell viability after 5 days by MTT assay
Type: cell-based
Settings: time 5 day
REPORTED_PROPERTY: CC50 at 120 h (µM)
Express your answer in µM, writing the number without its unit.

Prompt line: Item "Cc1ncc([N+](=O)[O-])n1CCSc1ccccc1" : provide CC50 at 120 h
Response line: 24.8

###

Tested on: Pseudomonas aeruginosa
Assay: Antibacterial activity against Pseudomonas aeruginosa ATCC 13525 incubated for 24 hrs by two fold serial dilution method
Type: functional
REPORTED_PROPERTY: MIC (µg/mL)
Kindly provide the numeric value in µg/mL only, without the unit symbol.

Completed entries (count: 3):
Prompt line: Identify measured MIC corresponding to "CC1(C)S[C@@H]2[C@H](NC(=O)Cc3ccccc3)C(=O)N2[C@H]1C(=O)O"
Response line: 6.25

Prompt line: # return recorded MIC for entry "Cc1cc(C)nc(NS(=O)(=O)c2ccc(/N=C/c3ccc(C(=O)OCCn4c([N+](=O)[O-])cnc4C)cc3)cc2)n1"
Response line: 3.13

Prompt line: Quickly give me recorded MIC for "Cc1ccnc(NS(=O)(=O)c2ccc(/N=C/c3ccc(C(=O)OCCn4c([N+](=O)[O-])cnc4C)cc3)cc2)n1"
Response line: 12.5

***
Prompt line: Please supply the value of reported MIC for the item "NC[C@H]1O[C@H](O[C@H]2[C@H](O)[C@@H](O[C@H]3O[C@H](CO)[C@@H](O)[C@H](N)[C@H]3O)[C@H](N)C[C@@H]2N)[C@H](N)[C@@H](O)[C@@H]1O"
Response line: 3.13

Prompt line: For the molecule Cc1ncc([N+](=O)[O-])n1CC(C)OC(=O)c1ccc(/C=N/c2ccc(S(=O)(=O)NC(=N)N)cc2)cc1 (stereo not given) , report MIC.
Response line: 25

###

Tested on: Leishmania braziliensis
Assay: Antileishmanial activity against promastigote form of Leishmania braziliensis MHOM/BR/75/M2903 measured for 7 days by cell counting method
Format: functional
Settings: MHOM/BR/75/M2903, 168 h, time 7 day
REPORTED_PROPERTY: LC50 (µM)
Give just the number in µM; leave the unit off.

# annotated cases, reported LC50 shown
Prompt line: Supply LC50 value. Item: "Cc1ncc([N+](=O)[O-])n1CCSCO"
Response line: 950

Prompt line: Specify measured LC50 for "Cc1ncc([N+](=O)[O-])n1CCSCOC(=O)c1ccc(O)c(O)c1" .
Response line: 13

# next compound below
Prompt line: Name the recorded LC50 of the item "Cc1ncc([N+](=O)[O-])n1CCSCOC(=O)c1cc(O)c(O)c(O)c1" in your answer.
Response line: 4

###

System: A549
Test: cells
Conditions: Homo sapiens, A549, 48 h
# key: entry, value: IC50
Express your answer in nM, writing the number without its unit.

Prompt line: Item COc1cc2c(c(OC)c1OC)-c1ccc(OC)c(=O)cc1[C@@H](NC(C)=O)CC2 [COLCHICINE] : provide IC50
Response line: 37

// below: IC50 requested for another molecule
Prompt line: Specify reported IC50 for the molecule shown: "COc1cc(/C=C\c2ncc([N+](=O)[O-])n2CCOC(=O)c2c[nH]c3ccccc23)cc(OC)c1OC"
Response line: 35

###

Assay: Acute oral toxicity in mouse assessed as induction of mortality measured once daily for 14 days
Conditions: in vivo, time 14 day
REPORTED_PROPERTY: LD50 at 336 h

Prompt line: Return reported LD50 at 336 h. Input compound: Cc1ncc([N+](=O)[O-])n1CC(C)OC(=O)c1ccc(/C=N/c2ccc(S(=O)(=O)NC(=N)N)cc2)cc1 (stereo not drawn)
Response line: > 5000 mg/kg

Next:
Prompt line: Provide measured LD50 at 336 h value, entry: "Cc1cc(C)nc(NS(=O)(=O)c2ccc(/N=C/c3ccc(C(=O)OCCn4c([N+](=O)[O-])cnc4C)cc3)cc2)n1"
Response line: > 5000 mg/kg

Prompt line: Identify LD50 at 336 h associated with the compound "Cc1ccnc(NS(=O)(=O)c2ccc(/N=C/c3ccc(C(=O)OCCn4c([N+](=O)[O-])cnc4C)cc3)cc2)n1"
Response line: > 5000 mg/kg

###

System: Staphylococcus aureus
Experiment: Antibacterial activity against Staphylococcus aureus ATCC 6538P incubated for 24 hrs by broth microdilution method
Assay type: functional
REPORTED_PROPERTY: MIC (µM)
Answer in µM, number only, no unit symbol.

Prompt line: Provide the reported MIC (system: Staphylococcus aureus) for "Cc1ncc([N+](=O)[O-])n1CCO"
Response line: 2050

Prompt line: Please look at "CC1(C)S[C@@H]2[C@H](NC(=O)[C@H](N)c3ccccc3)C(=O)N2[C@H]1C(=O)O" and tell me its recorded MIC on Staphylococcus aureus.
Response line: 0.036

Prompt line: Given "Cc1ncc([N+](=O)[O-])n1CC/N=C/c1cc(Cl)ccc1O" , report its MIC on Staphylococcus aureus.
Response line: 760

Prompt line: Fill: MIC (Staphylococcus aureus) for this compound "Cc1ncc([N+](=O)[O-])n1CC/N=C/c1ccccc1O"
Response line: 2000

###

Biological target: Carbonic anhydrase 2 (Homo sapiens)
Experiment: Inhibition of recombinant human carbonic anhydrase 2 preincubated with enzyme for 15 mins by phenol red dye based stopped flow CO2 hydration assay
REPORTED_PROPERTY: IC50 (nM)
// units = nM; emit number, no label

Prompt line: State recorded IC50 with Carbonic anhydrase 2 (Homo sapiens), entry "Cc1ncc([N+](=O)[O-])n1CCOc1ccc(/C=N\c2ccc(S(=O)(=O)NC(=N)N)cc2)cc1" , no comment.
Response line: 70

Prompt line: Write down the reported IC50 (system: Carbonic anhydrase 2 (Homo sapiens)) of "Cc1cc(NNS(=O)(=O)c2ccc(/N=C\c3ccc(OCCn4c([N+](=O)[O-])cnc4C)cc3)cc2)no1"
Response line: 33

Prompt line: Fill in: IC50 on Carbonic anhydrase 2 (Homo sapiens), entry "Cc1ncc([N+](=O)[O-])n1CCOc1cccc(/C=N\c2ccc(S(=O)(=O)Nc3nccs3)cc2)c1"
Response line: 89

Now for a further compound.
Prompt line: Param request: IC50 | system Carbonic anhydrase 2 (Homo sapiens) | item "Cc1ncc([N+](=O)[O-])n1CCOc1ccc(/C=N\c2ccc(S(=O)(=O)Nc3nccs3)cc2)cc1"
Response line: 16
